The following compounds are listed with their measured normalized growth values.
- experiment.notes: chemical genetic growth profiling, strain panel (AID 1159580);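 note: tested at 20 µM; growth read once vehicle control cultures reached saturation at 30 °C; 1 = growth at the plate median or of vehicle wells; lower values mean less growth of the strain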
- test.settings: S. cerevisiae deletion strains, growth OD, locus YKL085W, strain MDH1 (second series), active compounds read low
Hit rate of the full screen: of about 5,500 compounds, about 2,000 (36%) were called active. Roughly 18% stayed inconclusive and do not appear here. The list shows a part of the results.
measurement.name: normalized growth

>>> endpoint_value("Nc1ncnc2c1ncn2[C@@H]1O[C@H](CO)[C@@H](O)[C@H]1O")
0.965
>>> endpoint_value("CC(=O)c1c(O)c(C)c(O)c2c1OC1=CC(=O)C(C(C)=O)C(=O)C12C (stereo unspecified)")
0.275
>>> endpoint_value("O=c1[nH]c(=O)n(C2C[C@@H](O)[C@@H](CO)O2)cc1F (stereo partly specified)")
0.996
>>> endpoint_value("O[N+]1=CC=CCC1=S.On1ccccc1=S.[Zn]")
0.0543
>>> endpoint_value("C=C[C@](C)(O)CCC=C(C)C")
0.995
>>> endpoint_value("CC(C)=CCC[C@](C)(O)C1CC=C(C)CC1 (stereo partly specified)")
0.991

* * *

- experiment.notes: chemical genetic growth profiling, strain panel (AID 1159580);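 note: tested at 20 µM; growth read once vehicle control cultures reached saturation at 30 °C; 1 = growth at the plate median or of vehicle wells; lower values mean less growth of the strain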
- test.settings: S. cerevisiae deletion strains, growth OD, locus YNL071W, strain lat1
Screen size: about 5,500 compounds; about 2,000 (36%) were called active. Another 18% or so got no clear call; they are omitted. Cut-off read from the data, not from the text of the source: active = normalized growth mostly below about 0.91 (no sharp cut-off); inconclusive = no clear call, values can overlap the other calls; inactive = mostly above about 0.92. The list shows a part of the results.
Labels: Yes (active), No (inactive)

>>> classification("O=C(O)c1ccccc1Nc1cccc(C(F)(F)F)c1")
"Yes"
>>> classification("CS(=O)(=O)CCCCN=C=S")
"Yes"
>>> classification("OC[C@@H]1CCCN2CCCC[C@H]12")
"No"
>>> classification("NC[C@H](O)c1ccc(O)c(O)c1")
"No"
>>> classification("Oc1c(I)cc(Cl)c2cccnc12")
"Yes"
>>> classification("Cc1occc(=O)c1O")
"No"
>>> classification("Oc1ccc(Cl)c2cccnc12")
"Yes"
>>> classification("CC1(C)CCCC2(C)C3C1[C@@H](O)C2(C)C[C@H]3O (some centres undefined)")
"No"
>>> classification("O=C1O[C@H](C(O)CO)C(O)=C1O (some centres undefined)")
"No"
>>> classification("Cc1c(Nc2ncccc2C(=O)O)cccc1C(F)(F)F")
"No"
>>> classification("CC1(C)C(C(Cl)Cl)C2(Cl)C(Cl)C(Cl)C1(Cl)C2(Cl)Cl (centres undefined)")
"Yes"
>>> classification("C=C(CC)C(=O)c1ccc(OCC(=O)O)c(Cl)c1Cl")
"No"
>>> classification("COc1c2c(cc3c1OCO3)CCN(C)C2")
"No"
>>> classification("CCOC(=O)c1oc2c(OC)c(O)cc(O)c2c(=O)c1-c1cc(OC)c(OC)c(OC)c1")
"No"
>>> classification("NCC(O)c1ccc(O)cc1 (centres undefined)")
"No"
>>> classification("Cc1c(O)c(O)cc2c1CC=C1[C@@]2(C)CC[C@@]2(C)C3C[C@](C)(C(=O)O)CC[C@]3(C)CC[C@]12C (some centres undefined)")
"Yes"
>>> classification("O=C(O)c1ccccc1Nc1ccccc1")
"No"
>>> classification("O=C1CCCC2C3CC(CN12)[C@@H]1CCCCN1C3 (some centres undefined)")
"No"
>>> classification("Cc1ccc2c(Cl)cc(Cl)c(O)c2n1")
"No"
>>> classification("C1CCN2C[C@@H]3C[C@H](CN4CCCC[C@@H]34)[C@H]2C1")
"No"
>>> classification("C/C=C/c1ccc2c(c1)OCO2")
"No"
>>> classification("C1CNCCN1")
"No"
>>> classification("Oc1c(Cl)cc(Cl)c2cccnc12")
"Yes"
>>> classification("COC(=O)C[C@H]1C(C)(C)C(=O)[C@@H]2CC3=C4CC(=O)O[C@@H](c5ccoc5)[C@]4(C)CCC3[C@@]1(C)C2=O (some centres undefined)")
"No"

Values were extracted from PubChem BioAssay AID1159580.
